Values were extracted from patent US5460829A.

# TEST_NAME: Water solubility at pH 2
# Format: physicochemical
# ASSAY_SETUP: water; in the form of the lactate, pH 2; read-out: optimum solubility
ASSAY_METRIC: solubility (µg/mL)

                                   compound  result
0  CC(C)(C)c1ccc(C(=O)CCCN2CCC(OC(c3ccccc3)c3ccccc3)CC2)cc1 [compound of formula (I) lactate]     800
